Recorded values, source PubChem BioAssay.

# assaySummary: small-molecule microarray binders of probe aEGFR, primary screen, biochemical, biotinylated probe, 635/667 nm fluorescence (AID 1097);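 also: probe is a biotinylated anti-EGFR antibody binding compounds printed on slides; score combines fluorescence near 667 nm and signal to noise of each spot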
# experimentalConditions: higher = more signal
Listed next: entries and their corresponding composite z-score.

smilesString | composite z-score
CC(C)(C)N1C(=O)[C@H]2[C@H]3[C@H](O)[C@H](O)CC(=NOCc4ccccc4)[C@@H]3CC[C@H]2C1=O | 0.328
CCOC(=O)CCN1C(=O)[C@H]2[C@H]3[C@H](O)[C@H](O)CC(=NNC(=O)OCc4ccc(OC)cc4)[C@@H]3CC[C@H]2C1=O | -0.0986
C[C@@H]1C=CCC(=O)OC[C@H](C)C(=O)N[C@@H](C)C(=O)OC1 | 0.0886
COCCOC(=O)N1C(=O)[C@@]2(c3cc(C#CCNC(N)=O)ccc31)[C@H](c1ccccc1OCCO)N1[C@H](c3ccccc3)[C@H](c3ccccc3)OC(=O)[C@H]1[C@@H]2C(=O)N1CCN(c2ncccn2)CC1 | -0.0271
O=C1O[C@@H](c2ccccc2)[C@@H](c2ccccc2)N2[C@@H](c3ccc(OCCO)cc3)[C@]3(C(=O)Nc4ccccc43)[C@@H](C(=O)N3CCN(c4ncccn4)CC3)[C@H]12 | 0.0679
CCN1C(=O)[C@H]2[C@H]3[C@H](O)[C@H](O)CC(=NOCc4ccccc4)[C@@H]3CC[C@H]2C1=O | -0.0568
CCOC(=O)CCN1C(=O)[C@H]2[C@H]3[C@H](O)C=CC(=O)[C@@H]3CC[C@H]2C1=O | 0.0439
